Assay: yeast display, Sf9 membrane polyspecificity reagent, FACS + sequencing; frameworks hold sequencing errors
Observable: polyreactivity (PSR sort gate)

QVQLVESGGGLVQAGGSLRLSCAASGFIFDGYTMGWYRQAPGKERELVAAISRSGGRTYYADSVKGRFTISRDNAKNTVYLQMNSLKPEDTAVYYCAVRYRQYSQTVASDYGYWGQGTQVTLSS: high polyreactivity
QVQLVEAGGGLVQAGGRLRLSCAASGRIFGRTAMGWYRQAPGKERELGAAIRRSSASTYYADSVKGRFTISRDNAKNTFYLQMNSLKPEDTAVYYCATQSYSYYGYRYRYAAFDYWGQGTQVTVSS: high polyreactivity
